Test: VP16 counterscreen qHTS for inhibitors of ROR gamma transcriptional activity;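 also: Gal4-VP16 expression switched on by copper sulfate through the metallothionein promoter; nearly all actives have a fitted effect of over 50% in size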
Details: Drosophila S2 Gal4-VP16 UAS-luciferase, luminescence, 20 h; series mostly up to 53.6 µM
In all, about 310,000 compounds went through this assay and about 11,000 (3.5%) were called active. Not shown: some 8% with an inconclusive outcome. Calls follow the shape of the dose curve; as a rule, active = well fitted inhibition curve with a large enough effect; inconclusive = small, poorly fitted or top-dose-only effect, or effect the other way; inactive = flat fitted curve, though single readings scatter. For the sample, actives were picked, then their nearest neighbours and some compounds at random.
Parameter call: string, one of YES for active, NO for inactive

Take a look at these entries with their results.
| molecule | category label |
| --- | --- |
| COc1cccc(NC(C)=[N+](C)CCNS(=O)(=O)c2ccc(Cl)cc2)c1 | NO |
| Cc1cc(C)c(NC(=O)CSc2nc3ccncc3[nH]2)c(C)c1 | NO |
| CSc1nnc(C2CCCN(CC(=O)Nc3ccccc3N3CCOCC3)C2)n1C(C)C (stereo unspecified) | NO |
| Cc1onc(C(=O)Nc2ccc3c(c2)OCO3)c1[N+](=O)[O-] | NO |

INPUT: For Cc1cc(NC(=O)c2ccco2)c(=O)n(Cc2c(F)cccc2Cl)c1 , what call appears in the results of this test?
OUTPUT: NO

INPUT: For COc1ccc(OCc2cc(C(=O)N3CCCC3)no2)c2ccccc12 , what call appears in the results of this test?
OUTPUT: NO

INPUT: For Cc1cc(C)c(SCCc2ccncc2)c(C)c1 , what call appears in the results of this test?
OUTPUT: YES

INPUT: For Cc1c(C)c(C)c(S(=O)(=O)NCCc2ccccn2)c(C)c1C , what call appears in the results of this test?
OUTPUT: NO

INPUT: For CC(C)(C)c1ccc(SCCc2ccncc2)cc1 , what call appears in the results of this test?
OUTPUT: YES

INPUT: For c1ccc(CSCCc2ccncc2)cc1 , what call appears in the results of this test?
OUTPUT: NO

INPUT: For Cc1cc(C(=O)N/N=C/c2ccccc2[N+](=O)[O-])c(C)o1 , what call appears in the results of this test?
OUTPUT: NO

----------
Experiment: VP16 counterscreen qHTS for inhibitors of ROR gamma transcriptional activity;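 also: Gal4-VP16 expression switched on by copper sulfate through the metallothionein promoter; nearly all actives have a fitted effect of over 50% in size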; also: potency is read from the fitted curve at half-maximal effect
Settings: Drosophila S2 Gal4-VP16 UAS-luciferase, luminescence, 20 h; series mostly up to 53.6 µM
The whole screen tested about 310,000 compounds, of which about 11,000 (3.5%) were called active. Not shown: some 8% with an inconclusive outcome. For the sample, actives were picked, then their nearest neighbours and some compounds at random.
property name: Potency

Answered examples (10):
| compound | value reported |
| --- | --- |
| CCc1ccccc1N(CC(=O)NCC1CCCO1)C(=O)CCC(=O)Nc1nccs1 (stereo unspecified) | inactive |
| O=C(NCCc1cccc(F)c1)C1CCCN(c2nc3ccccc3s2)C1 (stereo unspecified) | inactive |
| O=[N+]([O-])c1ccccc1N/N=C1\CCc2ccccc21 | inactive |
| O=C(O)c1ccc(N/N=C/c2ccc3ncccc3c2)cc1 | 0.398 µM (active) |
| O=C(OC1CCOC1=O)c1ccc(-c2nc3ccccc3s2)s1 (stereo unspecified) | 1 µM (active) |
| CN(C)S(=O)(=O)c1cccc(NC(=S)NCc2ccc3c(c2)OCO3)c1 | inactive |
| Cc1c(Cl)cccc1NC(=S)NCc1ccc2c(c1)OCO2 | 11.2 µM (active) |
| O=C(c1ccc(Cl)cc1)n1cnc2ccccc21 | inactive |
| CCCCNC(=O)C(=O)c1ccccc1NC(C)=O | inactive |
| CCCCCN(C(=O)CCC(=O)OCC(=O)NCc1ccc(OC)cc1)c1c(N)n(CCCC)c(=O)[nH]c1=O | inactive |

Provide Potency for all items below, preserving their order.
1. CCOc1nc(-c2ccc(OC)cc2)ccc1-c1noc(-c2cc(OC)c(OC)c(OC)c2)n1
2. CC1CC(C)CN(c2ccc(S(=O)(=O)N3CCOCC3)cc2)C1 (stereo unspecified)
3. CCc1ccc2c(c1)C(c1ccc([N+](=O)[O-])cc1)=NNC(c1ccccc1)=N2
4. O=c1c([N+](=O)[O-])cc(C(F)(F)F)cn1Cc1cccc(Cl)c1
5. CCCCNC(=S)N/N=C1\CCCCc2ccccc21

OUTPUT:
inactive
inactive
inactive
inactive
4.47 µM (active)

Provide Potency for all items below, preserving their order.
1. Cc1cc(N2CCN(C)CC2)nc2ccc(NC(=S)N3CCOCC3)cc12
2. COc1ccccc1Cc1nc(-c2ccc(C)cc2)no1
3. COc1ccc(-c2c(C)cc3oc(=O)cc(-c4ccccc4)c3c2C)cc1OC
4. CCCNC(=O)CCc1c(C)nc2c(c(C)nn2-c2ccc(C)cc2)c1C
5. COc1ccc(-n2c(-c3ccc(OC)c(OC)c3)n[nH]c2=S)cc1
6. COc1cc(Nc2nc3ccc(Cl)cc3n3cnnc23)cc(OC)c1OC
7. COc1ccc(C(=O)NC2CC2)cc1OC1CCN(Cc2ccc(SC)cc2)CC1
8. COC(=O)COc1ccc(S(=O)(=O)Nc2ccc(NC(C)=O)cc2)cc1

OUTPUT:
inactive
inactive
inactive
inactive
inactive
inactive
inactive
inactive

----------
Experiment: VP16 counterscreen qHTS for inhibitors of ROR gamma transcriptional activity;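 also: Gal4-VP16 expression switched on by copper sulfate through the metallothionein promoter; nearly all actives have a fitted effect of over 50% in size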
Conditions: Drosophila S2 Gal4-VP16 UAS-luciferase, luminescence, 20 h; series mostly up to 53.6 µM
The whole screen tested about 310,000 compounds, of which about 11,000 (3.5%) were called active. Another 8% or so got no clear call; they are omitted. Calls come from the whole dose curve; as a rule, active = well fitted inhibition curve with a large enough effect; inconclusive = small, poorly fitted or top-dose-only effect, or effect the other way; inactive = flat fitted curve, though single readings scatter. Many of the other results were omitted from the sample, so actives are more common in it than they were.
Parameter call: string, one of Yes = active, No = inactive

Take a look at these entries with their results.
| compound | category label |
| --- | --- |
| Cc1ccn(CC(=O)N2N=C(C(F)F)CC2(O)C(F)F)n1 (stereo unspecified) | No |
| Cc1ccc(S(=O)(=O)NCc2ccc(C(=O)NC3CCC(C)CC3)cc2)cc1 (stereo unspecified) | No |
| Cc1ccc(NC(=O)C/C(N)=N/O)cc1Cl | No |
| C=CCOc1ccc(/C=C2/C(=O)ON=C2C)cc1OCC | No |
| Cc1nn(CC(=O)NCc2ccccn2)c(C)c1[N+](=O)[O-] | No |

INPUT: For COc1cccc(CN(C)C(=O)CC23CC4CC(CC(C4)C2)C3)c1OC , what call appears in the results of this test?
OUTPUT: No

INPUT: For CC1CCN(S(=O)(=O)c2ccc3[nH]c(=O)ccc3c2)CC1 , what call appears in the results of this test?
OUTPUT: No

INPUT: For COc1ccc(N)c(OC)c1 , what call appears in the results of this test?
OUTPUT: No

INPUT: For CN(Cc1ccccc1)C(=O)C(=O)c1cn(CC(=O)N2CCCC2)c2ccccc12 , what call appears in the results of this test?
OUTPUT: No

INPUT: For COc1cccc(NC(=O)c2ccc(S(=O)(=O)N(C)C)cc2)c1 , what call appears in the results of this test?
OUTPUT: No

INPUT: For O=C(CC(O)(C(F)(F)F)C(F)(F)F)Nc1ccc(Cl)c(Cl)c1 , what call appears in the results of this test?
OUTPUT: Yes

----------
Experiment: VP16 counterscreen qHTS for inhibitors of ROR gamma transcriptional activity;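 also: Gal4-VP16 expression switched on by copper sulfate through the metallothionein promoter; nearly all actives have a fitted effect of over 50% in size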
Conditions: Drosophila S2 Gal4-VP16 UAS-luciferase, luminescence, 20 h; series mostly up to 53.6 µM
Hit rate of the full screen: of about 310,000 compounds, about 11,000 (3.5%) were called active. Not shown: some 8% with an inconclusive outcome. Calls follow the shape of the dose curve; as a rule, active = well fitted inhibition curve with a large enough effect; inconclusive = small, poorly fitted or top-dose-only effect, or effect the other way; inactive = flat fitted curve, though single readings scatter. The entries come from a sample that favours actives as a whole.
Parameter call: string, one of active, inactive

| compound | category label |
| --- | --- |
| CCCc1nnc(NC(=O)CCC(=O)N2CCN(S(=O)(=O)c3ccc(OC)cc3)CC2)s1 | inactive |
| COCCN1C(=O)C(=O)/C(=C(/O)c2ccc(S(=O)(=O)N3CCOCC3)cc2)C1c1ccc(OC)c(OC)c1 (stereo unspecified) | inactive |
| C=CCn1c(C23CC4CC(CC(C4)C2)C3)n[nH]c1=S | active |
| CN(C)c1ccc(/C=C2\NC(=S)N(Cc3ccccc3)C2=O)cc1 | active |
| C=CCn1c(SCC(=O)NC23CC4CC(CC(C4)C2)C3)nc(O)cc1=O | inactive |
| Cc1ccc(-n2[nH]c(C)c(/C=N/NC(=O)c3cccc([N+](=O)[O-])c3)c2=O)cc1C | active |
| CC(=O)CCC(=O)c1ccc2ccccc2c1 | inactive |
| Cc1[nH]n(-c2ccccc2)c(=O)c1/C=N/NC(=O)c1ccoc1C | active |
| COc1cccc(NC(=O)CCc2nnc3ccc(N4CCC(C)CC4)nn23)c1 | inactive |
| O=C(C1CC(=O)N(C2CCCCC2)C1)N1CCN(c2ccccc2)CC1 (stereo unspecified) | inactive |

INPUT: For CCN(C(=O)COc1ccc(C(=O)c2ccccc2)cc1)c1ccccc1 , what call appears in the results of this test?
OUTPUT: inactive

INPUT: For CCOC(=O)[C@H]1[C@H]2COc3cc(OC)ccc3[C@@H]2N2C(=O)N(c3ccc(Br)cc3)C(=O)[C@@]12C , what call appears in the results of this test?
OUTPUT: inactive

INPUT: For CCc1ccc(/C=N/NC(=O)c2nnn(-c3nonc3N)c2CN2CCc3ccccc32)cc1 , what call appears in the results of this test?
OUTPUT: inactive

INPUT: For COc1cccc(/C=N/NC(=O)c2cccc([N+](=O)[O-])c2)c1OS(=O)(=O)c1ccc(C)cc1 , what call appears in the results of this test?
OUTPUT: inactive

INPUT: For COc1ccc(C(=O)NC(C)CCc2ccccc2)c(OC)c1 (stereo unspecified) , what call appears in the results of this test?
OUTPUT: inactive

INPUT: For Cc1[nH]n(-c2ccccc2)c(=O)c1N=Nc1ccccc1C(=O)N1CCCCC1 , what call appears in the results of this test?
OUTPUT: inactive
